# experiment description: Exploratory small molecule PK study in rats
# Format: in vivo, male Sprague-Dawley rats
# experimental setup: rat, PO 25 mg/Kg D5W vs IV 5 mg/Kg DPD

query smiles: CC(C)c1n[nH]c2cc(O)c(-c3nnc(C(=O)NCC(F)(F)F)n3-c3ccc(N4CCOCC4)cc3)cc12
result units: %
F: 0.52

query smiles: CCNC(=O)c1nnc(-c2cc3c(C(C)C)n[nH]c3cc2O)n1-c1ccc(CN2CCOCC2)cc1
result units: %
F: 197

query smiles: CC(C)c1n[nH]c2cc(O)c(-c3nnc(O)n3-c3ccc(N4CCN(C)CC4)cc3)cc12
result units: %
F: 7.57

query smiles: Oc1cc2[nH]nc(C3CCCC3)c2cc1-c1nnc(O)n1-c1ccc(CN2CCOCC2)cc1
result units: %
F: 13

---

# experiment description: Caco-2 permeability assay
# Format: in vitro ADME
# experimental setup: human, pH 7.4, ratio >2 considered as an efflux (P-gp) substrate, read-out: Pol. Ratio B-A/A-B
# Protocol: Caco-2 cells were cultured on 24-well plates at 0.8×10^5 cells/cm^2 for approximately 20 days until TEER values were above 300 Ωcm^2. Caco-2 monolayers were rinsed twice with transport buffer (HBSS supplemented with 10 mM HEPES and 25 mM glucose, pH 7.4) and then pre-incubated for 30 min. […] Permeability was calculated as follows: […]

query smiles: CC(C)c1n[nH]c2cc(O)c(-c3nnc(C(=O)NCC(F)(F)F)n3-c3ccc(N4CCOCC4)cc3)cc12
efflux ratio at 2 h: 2

---

# experiment description: Exploratory small molecule PK study in rats
# Format: in vivo, male Sprague-Dawley rats
# experimental setup: male, Sprague-Dawley, plasma; rat, IV 5 mg/Kg, DPD; read-out: T½ (converted)
Some compounds, each annotated with its measured half-life.
quantity: half-life (h)

query smiles: CCNC(=O)c1nnc(-c2cc3c(C(C)C)n[nH]c3cc2O)n1-c1ccc(CN2CCOCC2)cc1
observed value: 1.7
//
query smiles: CC(C)c1n[nH]c2cc(O)c(-c3nnc(O)n3-c3ccc(N4CCN(C)CC4)cc3)cc12
observed value: 1.1
//
query smiles: Oc1cc2[nH]nc(C3CCCC3)c2cc1-c1nnc(O)n1-c1ccc(CN2CCOCC2)cc1
observed value: 1.5
//
query smiles: CC(C)c1n[nH]c2cc(O)c(-c3nnc(C(=O)NCC(F)(F)F)n3-c3ccc(N4CCOCC4)cc3)cc12
observed value: 2.3

---

Some molecules, each annotated with its measured AUClast.
# experiment description: Exploratory small molecule PK study in rats
# Assay type: in vivo, male Sprague-Dawley rats
# Set-up: unit not given here
# experimental setup: rat, PO 25 mg/Kg, D5W

query smiles: CCNC(=O)c1nnc(-c2cc3c(C(C)C)n[nH]c3cc2O)n1-c1ccc(CN2CCOCC2)cc1
AUClast: 24.4
--
query smiles: Oc1cc2[nH]nc(C3CCCC3)c2cc1-c1nnc(O)n1-c1ccc(CN2CCOCC2)cc1
AUClast: 2.55
--
query smiles: CC(C)c1n[nH]c2cc(O)c(-c3nnc(C(=O)NCC(F)(F)F)n3-c3ccc(N4CCOCC4)cc3)cc12
AUClast: 0.07
--
query smiles: CC(C)c1n[nH]c2cc(O)c(-c3nnc(O)n3-c3ccc(N4CCN(C)CC4)cc3)cc12
AUClast: 0.61

---

# experiment description: Caco-2 permeability assay
# Assay type: in vitro ADME
# experimental setup: human, A to B, 2 h, 37° C., pH 7.4
quantity: Papp A→B at 2 h

compound: CC(C)c1n[nH]c2cc(O)c(-c3nnc(C(=O)NCC(F)(F)F)n3-c3ccc(N4CCOCC4)cc3)cc12 [Compound 38]
observed value: 12.4 ×10⁻⁶ cm/s
